Assay: Compound was tested in vitro for loss of compound after 4 hours exposure to hepatocytes of dog at 25 uM concentration
Format: ADME, organism-based, Canis lupus familiaris, Hepatocyte
Conditions: read-out: Metabolism
VALUE_KIND: metabolised at 4 h, 25 µM

Annotate the compound Cc1cc(C(=O)Nc2cccn([C@@H](Cc3ccc(F)c(F)c3)C(=O)N[C@H](/C=C/C(=O)OC(C)C)C[C@@H]3CCNC3=O)c2=O)no1 with its measured metabolised at 4 h, 25 µM.
16%

###

Recorded metabolised at 2 h, 25 µM, one value per entry.
Experiment: Compound was tested in vitro for loss of compound after 2 hours exposure to hepatocytes of dog at 25 uM concentration
Format: ADME, organism-based, Canis lupus familiaris, Hepatocyte
Conditions: read-out: Metabolism
Please give a number only; it is taken to be in %.

CHEMICAL_STRUCTURE: CC[C@@H](C(=O)N[C@H](/C=C/C(=O)OCc1ccccc1)C[C@@H]1CCNC1=O)n1cccc(NC(=O)c2cc(C)on2)c1=O
metabolised at 2 h, 25 µM [%]: 55

CHEMICAL_STRUCTURE: C#CC[C@@H](C(=O)N[C@H](/C=C/C(=O)OCc1ccccc1)C[C@@H]1CCNC1=O)n1cccc(NC(=O)c2cc(C)on2)c1=O
metabolised at 2 h, 25 µM [%]: 61

CHEMICAL_STRUCTURE: C#CC[C@@H](C(=O)N[C@H](/C=C/C(=O)OCC)C[C@@H]1CCNC1=O)n1cccc(NC(=O)c2cc(C)on2)c1=O
metabolised at 2 h, 25 µM [%]: 12

Annotate the molecule CCOC(=O)/C=C/[C@H](C[C@@H]1CCNC1=O)NC(=O)[C@H](CC)n1cccc(NC(=O)c2cc(C)on2)c1=O with its measured metabolised at 2 h, 25 µM.
14

Data provenance: ChEMBL document CHEMBL1145131
